Data provenance: PubChem BioAssay (NCI)

growth inhibition values by entry
Assay: NCI Yeast Anticancer Drug Screen. Data for the cln2 rad14 strain (AID 165);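 note: 0% = growth equal to vehicle treated cultures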
Details: S. cerevisiae cln2 rad14 strain, at 50.0 µM, stronger effect = higher value
Compounds without any hit were thinned out: in the full panel of roughly 79,000, 15% have a hit.
MEASURED PROPERTY: growth inhibition (%)

>>> quantitative_result("CCN1C(=O)Nc2ccc(Cl)cc2C1(O)c1ccccc1 (stereo not given)")
10.8
>>> quantitative_result("CCOC(=O)C(=CNC(=S)Nc1ccc(OCC)cc1)C(=O)OCC")
-16.3
>>> quantitative_result("COc1ccc(/C(=N/NC(=O)NN)C(c2ccc(OC)cc2)C2(O)CNc3c(Cl)cc(Cl)cc32)cc1 (stereo not given)")
-16.4
>>> quantitative_result("Nc1nc(-c2ccccc2)[nH]c(=O)n1")
-62.8
>>> quantitative_result("Cc1ccc(CCOC(=O)Nc2ccccc2)cc1")
-13.1
>>> quantitative_result("Cc1cc(C)c2ccc(=O)[nH]c2n1")
-3.05
>>> quantitative_result("c1ccc(CCCCCCc2ccccc2)cc1")
-6.55
>>> quantitative_result("O=C(CCC(=O)Nc1cccc([N+](=O)[O-])c1)CC(=O)c1ccc(Cl)cc1")
-25
>>> quantitative_result("COc1ccc(C2SC(N)=Nc3c2c(C)nn3C(=O)c2ccc(Cl)cc2)cc1 (stereo not given)")
-18.1
>>> quantitative_result("O=S1(=O)C=C(Br)CO1")
-17.4
>>> quantitative_result("CCC(=O)Nc1cccc([N+](=O)[O-])c1OC")
-52.2
>>> quantitative_result("COc1ccc(N2C(=O)C3c4[nH]c5cccc(C)c5c4C4CCC(C(C)(C)C)CC4C3C2=O)cc1 (stereo not given)")
-10.6
>>> quantitative_result("Cc1c(C(=O)CC(=O)C(=O)Nc2ccc(Cl)cc2)[n+](=O)c2ccccc2n1[O-]")
19.4
>>> quantitative_result("C=CCN1CC2CON(C(=O)C(OC)(c3ccccc3)C(F)(F)F)C2C1C(C)C (stereo not given)")
18.2
>>> quantitative_result("S=c1nc(-c2ccnc(-c3nc(=S)[nH][nH]3)c2)[nH][nH]1")
43.7
>>> quantitative_result("NN(CC(=O)O)CC(=O)O")
4.75
>>> quantitative_result("CC(=O)/C=C\\C(=O)NNS(=O)(=O)c1ccc(C)cc1")
9.35
>>> quantitative_result("CN1C(=O)C2(C=CCCC2)c2ccccc21 (stereo not given)")
-14.3
>>> quantitative_result("Cc1ccc(NC(=O)c2cccc(C(=O)Nc3ccc(C)c(Cl)c3)c2)cc1Cl")
-35
>>> quantitative_result("Cc1ccc2cccc(N)c2n1")
-33.5
>>> quantitative_result("COC(=O)c1cc(=O)[nH]c2c1c(=O)[nH]c(=O)n2C")
-39.2
>>> quantitative_result("COc1cc2c(cc1OC)C1CCc3ccccc3CN1CC2 (stereo not given)")
8.95
>>> quantitative_result("O=C1c2ccccc2C(=O)N1CNc1ccccc1Cl")
18.2
>>> quantitative_result("CN(/N=C\\c1ccc([N+](=O)[O-])cc1)C(=O)c1ccccc1")
-33.6
>>> quantitative_result("CN(C)c1ccccc1CCCCCBr")
-37.1
>>> quantitative_result("CCOC(=O)C1=C(C(=O)c2ccc(C)cc2)C(c2ccc([N+](=O)[O-])cc2)C(C(=O)c2ccc(C)cc2)=C(C(=O)OCC)N1")
-12.4
>>> quantitative_result("Cc1c(C(=O)CC(=O)C(=O)NC2C3CC4CC(C3)CC2C4)[n+](=O)c2ccccc2n1[O-] (stereo not given)")
16.3
>>> quantitative_result("CCCCCC(=O)NC1CCCCC1")
-7.4
>>> quantitative_result("CCCCCCCCS(=O)(=O)N(C)C")
-28.3
>>> quantitative_result("CCOC(=O)C1=CNC(C(=O)OCC)C1c1cccn1-c1ccc(Cl)cc1[N+](=O)[O-] (stereo not given)")
29
>>> quantitative_result("COC(=O)Nc1ccc(NC(=O)c2cscn2)c(NC(=O)OC)n1")
-4.05
>>> quantitative_result("CC(C)(C)OC(=O)C(C1NC2C(=O)OCC2(CO)S1)N1C(=O)c2ccccc2C1=O (stereo not given)")
-6.35
>>> quantitative_result("Cc1nn(C(=O)c2ccc(Cl)cc2)c2c1C(c1ccccc1)SC(N)=N2 (stereo not given)")
6.2
>>> quantitative_result("O=C(OCc1ccccc1)c1ccc(NCc2cc(O)ccc2O)cc1")
89.6
>>> quantitative_result("Nc1nc2c(ncn2C2OCC(O)C(O)C2O)c(=O)[nH]1 (stereo not given)")
-6.15
>>> quantitative_result("CCCCCCn1cnc2c(=O)[nH]c(N)nc21")
-7.05
>>> quantitative_result("O=S(=O)(Nc1cc(C(F)(F)F)ccc1Cl)c1ccc(F)cc1")
7.5
>>> quantitative_result("CC(C)CCC[C@@H](C)[C@H]1CC[C@H]2[C@@H]3CC[C@H]4C[C@@H](CCC=C(c5cc(Cl)c(O)c(C(=O)O)c5)c5cc(Cl)c(O)c(C(=O)O)c5)CC[C@]4(C)[C@H]3CC[C@]12C")
-4.2
>>> quantitative_result("CC12CC1CCCC2OC(=O)c1cc([N+](=O)[O-])cc([N+](=O)[O-])c1 (stereo not given)")
-12.7
>>> quantitative_result("Cc1cc(N)ccc1N=Nc1cc(S(=O)(=O)O)c2cccc(S(=O)(=O)O)c2c1")
3.95
>>> quantitative_result("Cc1ccc(NC(=O)CC/C(CC(=O)C(C)(C)C)=N/NC(=O)C(N)=O)cc1C")
10.6
>>> quantitative_result("C=CCCN=C(SC)SC")
-11.1
>>> quantitative_result("O=C(Nc1ccccc1)OCC#CCOC(=O)Nc1ccccc1")
-60.5
>>> quantitative_result("COC(=O)C(CC(=O)Nc1ccc(Cl)c(Cl)c1)C(=O)C(=O)Nc1ccc(Cl)c(Cl)c1 (stereo not given)")
6.6
>>> quantitative_result("O=C1OC(=O)c2c1cccc2[N+](=O)[O-]")
-14.4
